# credit: patent US8063221B2

target: recombinant full-length human GSK3β (Homo sapiens); construct: recombinant full-length human GSK3β (Upstate); purchased Upstate; assay: Luciferase-coupled cell-free GSK3β kinase assay; type: biochemical; settings: Table 1
Sequence (P49841 whole entry): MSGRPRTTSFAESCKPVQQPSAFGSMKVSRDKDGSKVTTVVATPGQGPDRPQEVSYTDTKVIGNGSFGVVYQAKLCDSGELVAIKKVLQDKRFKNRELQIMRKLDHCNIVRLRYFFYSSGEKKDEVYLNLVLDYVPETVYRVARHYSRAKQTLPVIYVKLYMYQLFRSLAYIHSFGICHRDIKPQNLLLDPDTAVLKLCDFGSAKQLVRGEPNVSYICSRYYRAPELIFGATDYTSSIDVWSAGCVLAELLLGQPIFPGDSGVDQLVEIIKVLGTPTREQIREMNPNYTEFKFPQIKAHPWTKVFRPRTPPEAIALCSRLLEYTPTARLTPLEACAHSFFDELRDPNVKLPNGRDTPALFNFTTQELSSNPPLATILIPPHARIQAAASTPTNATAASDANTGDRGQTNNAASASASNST
quantity: IC50

Consider the following illustrative entries.
The compound Nc1c(F)c(NCCc2ccncc2)c(F)c2c1c(=O)ccn2C1CC1 showed IC50 equal to 100 to 500 nM

The compound Nc1c(F)c(NCCc2ccncc2)c(F)c2c1c(=O)c(C(=O)O)cn2C1CC1 showed IC50 equal to 100 to 500 nM

Continuing:
The compound Nc1c(F)c(NCCNc2ccccn2)c(F)c2c1c(=O)c(C(=O)O)cn2C1CC1 showed IC50 equal to 100 to 500 nM

The compound Nc1c(F)c(NCCCc2ccccc2)c(F)c2c1c(=O)ccn2CCc1ccccc1 showed IC50 equal to 100 to 500 nM

The compound Nc1c(F)c(NCCCc2ccccc2)c(F)c2c1c(=O)c(C(=O)O)cn2C1CC1 showed IC50 equal to < 100 nM

The compound Nc1c(F)c(NCCNC(=O)c2ccc(F)cc2)c(F)c2c1c(=O)c(C(=O)O)cn2C1CC1 showed IC50 equal to 100 to 500 nM

The compound Nc1c(F)c(NCCc2ccc(Cl)cc2Cl)c(F)c2c1c(=O)c(C(=O)O)cn2C1CC1 showed IC50 equal to 500 to 1000 nM

The compound Nc1c(F)c(NCCc2ccncc2)c(F)c2c1c(=O)c(C(=O)O)cn2CCc1ccccc1 showed IC50 equal to < 100 nM

The compound Nc1c(F)c(NCCCc2ccccc2)c(F)c2c1c(=O)c(C(=O)O)cn2CCc1ccccc1 showed IC50 equal to < 100 nM

---

test system: E. coli, ATCC8739; experiment: Antibacterial activity (MIC), E. coli; assay type: cell-based; settings: Escherichia coli, ATCC8739, Table 1; E. coli ATCC8739; read-out: Antibacterial MIC (μM) E.Coli
quantity: MIC

Consider the following illustrative entries.
The compound Nc1c(F)c(NCCCn2ccnc2)c(F)c2c1c(=O)c(C(=O)O)cn2C1CCCC1 showed MIC equal to > 50 µM

The compound COc1c(NCCNc2ccccn2)c(F)c(N)c2c(=O)c(C(=O)O)cn(C3CC3)c12 showed MIC equal to 0.5 to 10 µM

The compound COc1c(NCCc2ccncc2)c(F)c(N)c2c(=O)c(C(=O)O)cn(C3CC3)c12 showed MIC equal to 10 to 50 µM

The compound Nc1ccc(CCNc2c(F)c(N)c3c(=O)ccn(C4CC4)c3c2F)cc1 showed MIC equal to > 50 µM

The compound Nc1c(F)c(NCCc2ccc(O)cc2)c(F)c2c1c(=O)c(C(=O)O)cn2C1CC1 showed MIC equal to 0.5 to 10 µM

Continuing:
The compound Nc1c(F)c(NCCc2ccncc2)c(F)c2c1c(=O)c(C(=O)O)cn2C1CCCC1 showed MIC equal to 10 to 50 µM

The compound COc1c(NCCc2ccncc2)c(F)c(N)c2c(=O)c(C(=O)O)cn(C3CCCC3)c12 showed MIC equal to > 50 µM

The compound COc1c(NCCCn2ccnc2)c(F)c(N)c2c(=O)c(C(=O)O)cn(C3CCCC3)c12 showed MIC equal to > 50 µM

---

system: S. aureus Smith; assay: Antibacterial activity (MIC), S. aureus; format: cell-based; conditions: Staphylococcus aureus, Table 1; read-out: Antibacterial MIC (μM) S. aureus Smith
Here, each record is paired with measured MIC data.

Consider the following illustrative entries.
The compound Nc1ccc(CCNc2c(F)c(N)c3c(=O)ccn(C4CC4)c3c2F)cc1 showed MIC equal to 10 to 50 µM

The compound Nc1c(F)c(NCCc2ccncc2)c(F)c2c1c(=O)c(C(=O)O)cn2CCc1ccccc1 showed MIC equal to 10 to 50 µM

The compound Nc1c(F)c(NCCNc2cccc3ccccc23)c(F)c2c1c(=O)c(C(=O)O)cn2C1CC1 showed MIC equal to 0.5 to 10 µM

The compound Nc1c(F)c(NCCc2ccc(F)cc2F)c(F)c2c1c(=O)c(C(=O)O)cn2C1CC1 showed MIC equal to 0.5 to 10 µM

Continuing:
The compound Nc1c(F)c(NCCCc2ccccc2)c(F)c2c1c(=O)c(C(=O)O)cn2C1CC1 showed MIC equal to 0.5 to 10 µM

The compound Nc1c(F)c(NCCCn2ccnc2)c(F)c2c1c(=O)c(C(=O)O)cn2C1CCCC1 showed MIC equal to > 50 µM

The compound Nc1c(F)c(NCCCc2ccccc2)c(F)c2c1c(=O)c(C(=O)O)cn2C1CCCC1 showed MIC equal to 10 to 50 µM

The compound Nc1c(F)c(NCCc2ccncc2)c(F)c2c1c(=O)c(C(=O)O)cn2C1CCCC1 showed MIC equal to 10 to 50 µM
